assay: in vivo; details: rat, in vivo, po, 4 mg/kg
measured.endpoint: AUC0-∞ (ng·h/mL)
Numeric answer only, unit ng·h/mL assumed.

Worked cases, AUC0-∞ given:
| molecule | unit.of.measurement | AUC0-∞ |
| --- | --- | --- |
| CNC[C@H](O)[C@@H](O)[C@H](O)[C@H](O)CO [Meglumine] | ng·h/mL | 17083 |
| [K+] [Potassium] | ng·h/mL | 10112 |
| [Mg] [Magnesium] | ng·h/mL | 23029 |

# input for lookup
Ask: # return recorded AUC0-∞ for input [Ca] [Calcium]
Result: 27157

* * *

Reported AUCExtr values follow for various molecules
experiment: in vivo; details: rat, in vivo, po, 4 mg/kg
Numeric answer only, unit % assumed.

Worked cases, AUCExtr given:
| chemical.string | experimental.result |
| --- | --- |
| CNC[C@H](O)[C@@H](O)[C@H](O)[C@H](O)CO | 0.488 |
| [Mg] | 0.510 |
| [K+] | 0.525 |

# input for lookup
Ask: # return recorded AUCExtr for input "[Ca]"
Result: 1.03

* * *

experiment: Kinetic solubility of PP-001 salts in FaSSIF (HPLC); assay type: physicochemical; settings: 4 mL FaSSIF, 25° C., target 2 mg/mL, 1 h
Response key: yes (1) means Solubility at different time points, 1 h >= 2000 µg/mL; no (0) means Solubility at different time points, 1 h < 2000 µg/mL.

| compound | answer.label |
| --- | --- |
| [Mg] [Magnesium] | no (0) |

Ask: Does Solubility at different time points, 1 h meet or surpass 2000 µg/mL for [Ca] [Calcium] ?
Result: no (0)

Ask: Does Solubility at different time points, 1 h meet or surpass 2000 µg/mL for [K+] [Potassium] ?
Result: yes (1)

* * *

assay: Kinetic solubility of PP-001 salts in FaSSIF (HPLC); assay type: physicochemical; conditions: 4 mL FaSSIF, 25° C., target 2 mg/mL, initial
Response key: satisfied means Solubility at different time points, Initial >= 500 µg/mL; not satisfied means Solubility at different time points, Initial < 500 µg/mL.

Solved entries:
| chemical.string | answer.label |
| --- | --- |
| CNC[C@H](O)[C@@H](O)[C@H](O)[C@H](O)CO | satisfied |
| [Ca] | not satisfied |
| NCCCC[C@H](N)C(=O)O | satisfied |

For the next question, use this compound.
Ask: Does Solubility at different time points, Initial meet or surpass 500 µg/mL for "[Mg]" ?
Result: not satisfied

* * *

test: Solubility of PP-001 free acid in supernatant of 10 mg/mL formulation in FaSSIF; format: physicochemical; conditions: supernatant of 10 mg/mL formulation at 25° C. in FaSSIF after 120 min
measured.endpoint: solubility at 120 min (µg/mL)
Numeric answer only, unit µg/mL assumed.

Ask: # return recorded solubility at 120 min for input O=C(Nc1c(F)c(F)c(-c2cccc(OC(F)(F)F)c2)c(F)c1F)c1ccsc1C(=O)O [PP-001 free acid]
Result: 1200

* * *

assay: in vivo; conditions: rat, in vivo, po, 4 mg/kg
Reported Cmax values follow for various compounds
Numeric answer only, unit ng/mL assumed.

Worked cases, Cmax given:
| compound | experimental.result |
| --- | --- |
| [Mg] [Magnesium] | 3163 |
| CNC[C@H](O)[C@@H](O)[C@H](O)[C@H](O)CO [Meglumine] | 2217 |
| [Ca] [Calcium] | 3280 |

Ask: # return recorded Cmax for input [K+] [Potassium]
Result: 1144
